- System: Fer (mouse)
- method: phosphorylation enrichment, bacterial display (enrichment ratio); higher = better substrate or ligand; peptides without Tyr show the background
Rule: phosphorylation enrichment of 0.5 or more gives 1 (yes); anything lower gives 0 (no).

residues: RQQQDYWLMDV [ANPEP_Y600_I603M]
system under test: Fer (mouse)
answer label: 1 (yes)

residues: HNVPIYEGFAL [ACTA1_Y168_YF]
system under test: Fer (mouse)
answer label: 1 (yes)

residues: SVVVCYEPPEV [TP53_Y220_P219C]
system under test: Fer (mouse)
answer label: 1 (yes)

residues: GSIQQYIYKQE [PRG4_Y1271]
system under test: Fer (mouse)
answer label: 0 (no)

residues: IINENYDFLKV [NUP98_Y1664_G1669V_YF]
system under test: Fer (mouse)
answer label: 1 (yes)

residues: PVDNLYAEPAV [PRPS1_Y146]
system under test: Fer (mouse)
answer label: 1 (yes)

residues: QLPRGYISILV [BAG3_Y205_P209L]
system under test: Fer (mouse)
answer label: 1 (yes)

residues: VIKDKYPKAHY [APTX_Y209_R213H]
system under test: Fer (mouse);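 further: frequency after pTyr selection over input frequency; kinase dosed for 20-30% of maximal phosphorylation in three min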
answer label: 0 (no)

residues: AVISVYDLVVV [PSEN1_Y256_A260V]
system under test: Fer (mouse);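 further: frequency after pTyr selection over input frequency; kinase dosed for 20-30% of maximal phosphorylation in three min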
answer label: 1 (yes)

residues: EDGRLYAVKRS [PKMYT1_Y136]
system under test: Fer (mouse);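 further: frequency after pTyr selection over input frequency; kinase dosed for 20-30% of maximal phosphorylation in three min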
answer label: 0 (no)

residues: AFLEDYFTSTE [SRC_Y522]
system under test: Fer (mouse);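 further: 11-residue human phosphosite peptides and single-mutation variants displayed on the E. coli surface, counted by deep sequencing, each peptide's frequency after selection divided by its frequency in the unselected input library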;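 further: frequency after pTyr selection over input frequency; kinase dosed for 20-30% of maximal phosphorylation in three min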
answer label: 1 (yes)

This collection of values is drawn from the supplement of paper PMC10065799.
